Quick record: IC50, UniProt:P00533.
Sequence (P00533 whole entry, looked up): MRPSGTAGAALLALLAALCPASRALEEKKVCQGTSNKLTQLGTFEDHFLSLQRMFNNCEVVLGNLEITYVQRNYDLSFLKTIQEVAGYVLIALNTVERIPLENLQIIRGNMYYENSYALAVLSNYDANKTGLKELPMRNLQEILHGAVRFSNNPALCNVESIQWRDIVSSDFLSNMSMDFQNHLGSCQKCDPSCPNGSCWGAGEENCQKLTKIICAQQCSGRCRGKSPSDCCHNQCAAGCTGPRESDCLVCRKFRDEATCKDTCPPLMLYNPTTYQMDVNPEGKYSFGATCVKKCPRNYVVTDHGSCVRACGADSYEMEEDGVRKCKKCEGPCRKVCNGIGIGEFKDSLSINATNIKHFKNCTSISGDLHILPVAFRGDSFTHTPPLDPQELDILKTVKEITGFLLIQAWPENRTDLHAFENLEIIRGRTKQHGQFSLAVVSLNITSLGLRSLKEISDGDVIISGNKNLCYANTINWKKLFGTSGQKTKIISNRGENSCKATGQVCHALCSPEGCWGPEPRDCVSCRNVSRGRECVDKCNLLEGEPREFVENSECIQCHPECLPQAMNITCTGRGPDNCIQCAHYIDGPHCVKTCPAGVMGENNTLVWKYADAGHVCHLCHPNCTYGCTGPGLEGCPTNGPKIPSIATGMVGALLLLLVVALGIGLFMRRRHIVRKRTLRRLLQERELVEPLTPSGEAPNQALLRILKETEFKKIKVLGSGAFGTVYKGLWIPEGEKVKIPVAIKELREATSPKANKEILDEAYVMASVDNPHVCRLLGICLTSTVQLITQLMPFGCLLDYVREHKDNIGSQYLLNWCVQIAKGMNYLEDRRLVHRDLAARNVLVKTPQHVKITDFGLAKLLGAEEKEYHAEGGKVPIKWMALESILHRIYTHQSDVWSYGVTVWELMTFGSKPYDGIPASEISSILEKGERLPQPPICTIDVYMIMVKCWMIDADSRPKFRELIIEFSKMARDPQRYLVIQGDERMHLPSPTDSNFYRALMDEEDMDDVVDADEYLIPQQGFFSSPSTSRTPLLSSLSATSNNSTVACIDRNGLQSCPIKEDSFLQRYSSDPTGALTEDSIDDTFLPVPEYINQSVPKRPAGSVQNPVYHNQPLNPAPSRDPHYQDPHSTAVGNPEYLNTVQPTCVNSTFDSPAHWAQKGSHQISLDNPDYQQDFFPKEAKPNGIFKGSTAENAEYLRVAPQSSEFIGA

Exercise: State its IC50 on UniProt:P00533: `COc1ccc2c(c1)/C(=C/c1[nH]c(C)c(CCCN(C)C)c1C)C(=O)N2`
Key: > 100 µM

Exercise: Here is the next molecule: `COc1ccc(-c2ccc3c(c2)NC(=O)/C3=C\c2[nH]c(C)c(CCCN(C)C)c2C)cc1`
Key: > 100 µM

Exercise: Now the same for `Cc1[nH]c(/C=C2/C(=O)Nc3cc(Cl)ccc32)c(C)c1CCCN(C)C`
Key: 86.6 µM

Exercise: Same read-out for `COc1cccc(-c2ccc3c(c2)NC(=O)/C3=C\c2[nH]c(C)c(CCCN(C)C)c2C)c1` ?
Key: 28.1 µM

Exercise: Next record, please: `Cc1[nH]c(/C=C2/C(=O)Nc3ccc(Cl)cc32)c(C)c1CCCN(C)C`
Key: > 100 µM

Exercise: Now the molecule `Cc1[nH]c(/C=C2/C(=O)Nc3cc(-c4ccccc4)ccc32)c(C)c1CCCN(C)C`
Key: > 100 µM

Exercise: Follow-up entry: `Cc1[nH]c(/C=C2/C(=O)Nc3ccccc32)c(C)c1CCCN(C)C`
Key: > 100 µM

Exercise: Here is the next molecule: `Cc1[nH]c(/C=C2/C(=O)Nc3ccc(Br)cc32)c(C)c1CCCN(C)C`
Key: > 100 µM

Exercise: Query `COc1ccc(-c2ccc3c(c2)NC(=O)/C3=C\c2[nH]c(C)c(CCCN3CCOCC3)c2C)cc1` next
Key: > 100 µM
